- Experimental System: MAGI2_2, Q86UL8
- Sequence (Q86UL8 410-522): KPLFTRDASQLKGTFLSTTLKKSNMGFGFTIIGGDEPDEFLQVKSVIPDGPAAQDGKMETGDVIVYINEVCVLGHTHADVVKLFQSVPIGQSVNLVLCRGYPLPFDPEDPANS
- Experiment: holdup assay
- Parameters: key: below the threshold = too weak to quantify, mostly under pKd 3.1 to 4
- Stated Conditions: plain residues with an end cap or a label only (N-terminal biotin on a linker: ado-ado)
Observation Type: pKd

| Binder | Endpoint Result |
| --- | --- |
| TKEIPNCTSV [SORCS3, Q9UPU3] | 4.29 |
| KAEEKPPSKV [SCN4B, Q8IWT1] | below the threshold |
| KKTPVSRSHL [SLC22A3, O75751] | below the threshold |
| TFSRRPKTRV [CD226, Q15762] | 5.31 |
| ELKAEDEVQI [DCHS2, Q6V1P9] | below the threshold |
